Assay: S16 Schwann cell viability assay (CellTiter-Glo assay) (AID 624031); note: nearly all actives have a fitted effect of over 70% in size
Settings: S16 rat Schwann cells viability, 24 h; series mostly up to 57.5 µM
Results filed as inconclusive are left out. Active and inactive are the calls of the source. Calls come from the whole dose curve; as a rule, active = well fitted cell-killing curve with a large enough effect; inconclusive = small, poorly fitted or top-dose-only effect, or effect the other way; inactive = flat fitted curve, though single readings scatter.
Possible outcomes: active, inactive

NC(=O)c1ncn([C@@H]2O[C@H](CO)[C@@H](O)[C@H]2O)c1O; inactive
CCN(CC)CCCN(c1ccccc1)C1Cc2ccccc2C1; active
Nc1ncn([C@@H]2O[C@H](CO)[C@@H](O)[C@H]2O)c(=O)n1; inactive
CCO/C([O-])=N/c1c[n+](N2CCOCC2)no1; inactive
C[n+]1cc2c3c(ccc2c2ccc4cc5c(cc4c21)OCO5)OCO3; active
Cc1ccc(S(=O)(=O)NC(=O)NN2CCCCCC2)cc1; inactive
C[N+](C)(C)CCOC(N)=O; inactive
NC/C=C/C(=O)O; inactive
CC(=O)Nc1nnc(S(N)(=O)=O)s1; inactive
NC(N)=NC(=O)Cc1c(Cl)cccc1Cl; inactive
CCN(Cc1ccncc1)C(=O)C(CO)c1ccccc1 (centres undefined); inactive
c1cnc(N2CCN(Cc3ccc4c(c3)OCO4)CC2)nc1; inactive
CN1CCN(C2=Nc3ccccc3Oc3ccc(Cl)cc32)CC1; inactive
CC(=O)OCC1=C(C(=O)O)N2C(=O)[C@@H](NC(=O)Cc3cccs3)[C@H]2SC1; inactive

* * *

Assay: qHTS of pediatric cancer cell lines to identify multiple opportunities for drug repurposing: Primary screen for NB1643 cells (AID 1347099); note: nearly all actives have a fitted effect of over 50% in size; note: potency is the fitted concentration of half-maximal effect
Conditions: NB1643 neuroblastoma viability, CellTiter-Glo luminescence, 48 h; series mostly up to 46 µM
Results filed as inconclusive are left out. The source made the active and inactive calls. Calls follow the shape of the dose curve; as a rule, active = well fitted cell-killing curve with a large enough effect; inconclusive = small, poorly fitted or top-dose-only effect; inactive = no such curve, though single readings can be large or run the other way.
result type: Potency

CN(C)CC/C=C1\c2ccccc2COc2ccccc21; inactive
CC(=O)[C@@]1(O)CC[C@H]2[C@@H]3CCC4=CC(=O)CC[C@]4(C)[C@H]3CC[C@@]21C; inactive
COC(=O)C1=C(C)NC(C)=C(C(=O)OCCN(C)Cc2ccccc2)C1c1cccc([N+](=O)[O-])c1 (stereo unspecified); 21.1 µM (active)
C[N+](C)(C)CCOC(=O)CCC(=O)OCC[N+](C)(C)C; inactive
CCCCNc1c(C(=O)OCC)c(C)nc2c1cnn2CC; inactive
O=C(CCCN1CCC(O)(c2cccc(C(F)(F)F)c2)CC1)c1ccc(F)cc1; inactive
CN(C)[C@@H]1C(=O)C(C(N)=O)=C(O)[C@@]2(O)C(=O)C3=C(O)c4c(O)ccc(Cl)c4[C@@H](O)[C@H]3C[C@@H]12; inactive
COCCc1ccc(OCC(O)CNC(C)C)cc1 (stereo unspecified); inactive
COC(=O)[C@@H](N)Cc1ccc(O)c(O)c1; inactive
NC1=NCC2c3ccccc3Cc3ccccc3N12 (stereo unspecified); inactive
NC/C=C/C(=O)O; inactive

* * *

Test: qHTS of pediatric cancer cell lines to identify multiple opportunities for drug repurposing: Primary screen for NB-EBc1 cells (AID 1347095);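 note: plate controls were DMSO neutral control for no effect and bortezomib for full effect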
Conditions: NB-EBc1 neuroblastoma viability, CellTiter-Glo luminescence, 48 h; series mostly up to 46 µM
Records with an inconclusive call do not appear. The source made the active and inactive calls. The call rests on the fitted dose curve; in most records, active means well fitted cell-killing curve with a large enough effect; inconclusive means small, poorly fitted or top-dose-only effect; inactive means no such curve, though single readings can be large or run the other way.
result type: outcome

CC(=O)Nc1nnc(S(N)(=O)=O)s1; inactive
FC(F)(F)c1ccccc1-n1ccnc1; inactive
O=C(O)CN(CCN(CC(=O)O)CC(=O)O)CCN(CC(=O)O)CC(=O)O; inactive

* * *

Tested on: HEK293
Assay: Cytotoxic Profiling of Annotated Libraries Using Quantitative High-Throughput Screening (AID 1296008); note: % is set by controls: 0 for no effect and ±100 for the full control effect; nearly all actives have a fitted effect of over 60% in size
Conditions: Five cell lines viability, CellTiter-Glo ATP luminescence, 48-72 h; active compounds read low
Experimental: Cell-based phenotypic screening is a commonly used approach to discover biological pathways, novel drug targets, chemical probes and high-quality hit-to-lead molecules. […] A pintool (Kalypsys) was used to transfer 23 nL of compound solution to the 1536-well assay plates. […] Plates were left at room temperature for 10 min before imaging the ATP-coupled luminescence using a ViewLux microplate imager (PerkinElmer, Waltham, MA).
Records with an inconclusive call do not appear.
result type: max response (%)

CN1C(=O)CC[C@H]1c1cccnc1; -8.79
CC(=O)Nc1nnc(S(N)(=O)=O)s1; 3.96
CCO/C([O-])=N/c1c[n+](N2CCOCC2)no1; -1.87
Cc1scc2c1N(C(=O)CN1CCN(C)CC1)c1ccccc1NC2=O; -0.369
Cc1nc2c([nH]1)c(=O)n(C)c(=O)n2Cc1ccco1; 4.2
N[C@@H](COP(=O)(O)O)C(=O)O; -2.26
FC(F)(F)c1ccccc1-n1ccnc1; -1.59
CCN(Cc1ccncc1)C(=O)C(CO)c1ccccc1 (stereo unspecified); -10.1
CN(C)CCOC(=O)COc1ccc(Cl)cc1; 2.83
CN(C)C/C=C(/c1ccc(Br)cc1)c1cccnc1; -10.5
CCN(CC)CC(=O)Nc1c(C)cccc1C; -14.5

* * *

Experiment: Primary qHTS for inhibitors of nuclear receptor binding SET domain protein 2 (NSD2) in an isogenic RCH-ACV NSD2 p.E1099K mutant (9B) (AID 1645876); note: nearly all actives have a fitted effect of over 70% in size
Conditions: RCH-ACV (leukaemia line) NSD2 E1099K (9B) viability, CellTiter-Glo, 72 h; series mostly up to 44.9 µM
Records with an inconclusive call do not appear. Active and inactive are the calls of the source. Calls come from the whole dose curve; as a rule, active = well fitted inhibition curve with a large enough effect; inconclusive = small, poorly fitted or top-dose-only effect; inactive = flat fitted curve, though single readings scatter.
Possible outcomes: active, inactive

CC(C(=O)O)c1ccc(CC2CCCC2=O)cc1 (centres undefined); inactive
CC1=C(C)C(=O)C(CCCCC#CCCCC#CCO)=C(C)C1=O; active
C[N+](C)(C)CCOC(=O)CCC(=O)OCC[N+](C)(C)C; inactive
CN1C(=O)CC[C@H]1c1cccnc1; inactive
C=CCc1ccccc1OCC(O)CNC(C)C (centres undefined); inactive
CCCCCN(CCCCC)C(=O)C(CCC(=O)O)NC(=O)c1ccc(Cl)c(Cl)c1 (centres undefined); inactive
CCN(CC)CCNC(=O)c1ccc(NC(C)=O)cc1; inactive
CCCCOCCOCCOCc1cc2c(cc1CCC)OCO2; inactive
CN=C(NC#N)NCCSCc1nc[nH]c1C; inactive
Cc1nnc(SCC2=C(C(=O)O)N3C(=O)[C@@H](NC(=O)Cn4cnnn4)[C@H]3SC2)s1; inactive
Nc1ncn([C@@H]2O[C@H](CO)[C@@H](O)[C@H]2O)c(=O)n1; active
O=C1NCN(c2ccccc2)C12CCN(CCCC(c1ccc(F)cc1)c1ccc(F)cc1)CC2; active
CC(C)NCC(O)c1cc(O)cc(O)c1 (centres undefined); inactive
c1cnc(N2CCN(Cc3ccc4c(c3)OCO4)CC2)nc1; inactive
CCCNC(C)C(=O)Nc1ccccc1C (centres undefined); inactive
CCN1CCc2nc(N)oc2CC1; inactive
NC/C=C/C(=O)O; inactive
Cc1ccc(/C(=C\CN2CCCC2)c2ccccn2)cc1; inactive
O=C(CCNNC(=O)c1ccncc1)NCc1ccccc1; inactive

* * *

Target: Metallo-beta-lactamase type 2 (Klebsiella pneumoniae)
Assay: qHTS to identify inhibitors of the New Delhi Metallo-beta-lactamase (NDM): assay validation screen against the NCATS LOPAC Collection (AID 1794843)
Settings: NDM-1 enzyme, nitrocefin hydrolysis, absorbance 485 nm; series mostly up to 38.4 µM
Results filed as inconclusive are left out. Activity calls are given as the source filed them. The call rests on the fitted dose curve; in most records, active means well fitted curve in the direction sought with a large enough effect; inconclusive means small, poorly fitted or top-dose-only effect, or another doubt; inactive means no such curve, though single readings can be large or run the other way.
Possible outcomes: T = active, F = inactive

C(=C\c1ccccc1)/CN1CCN(C(c2ccccc2)c2ccccc2)CC1; F
O=C(O)CN(CCN(CC(=O)O)CC(=O)O)CCN(CC(=O)O)CC(=O)O; T
CC1=NS(=O)(=O)c2cc(Cl)ccc2N1; F

* * *

System: GB4
Assay: qHTS profiling for inhibitors of Plasmodium falciparum proliferation (AID 504749); note: nearly all actives have a fitted effect of over 60% in size
Details: P. falciparum in erythrocytes, SYBR Green DNA, 72 h; series mostly up to 28.7 µM
Inconclusive results are not listed. Activity calls are given as the source filed them. The call rests on the fitted dose curve; in most records, active means well fitted inhibition curve with a large enough effect; inconclusive means small, poorly fitted or top-dose-only effect; inactive means flat fitted curve, though single readings scatter.
Possible outcomes: 1 = active, -1 = inactive

CCNC(=O)N1CCN(CCCC(c2ccc(F)cc2)c2ccc(F)cc2)CC1; 1
NC(=O)c1cn(Cc2c(F)cccc2F)nn1; -1
COc1cc(C(=O)OCCCN2CCCN(CCCOC(=O)c3cc(OC)c(OC)c(OC)c3)CC2)cc(OC)c1OC; 1
CCN(CC)CCOCCOC(=O)C1(c2ccccc2)CCCC1; 1
CN1CCN(CC(=O)N2c3ccccc3C(=O)Nc3cccnc32)CC1; -1
O=C(CCCN1CCC(O)(c2cccc(C(F)(F)F)c2)CC1)c1ccc(F)cc1; 1
CCn1cc(C(=O)O)c(=O)c2cc3c(cc21)OCO3; -1
CC(N=C(NC#N)Nc1ccncc1)C(C)(C)C (stereo unspecified); -1
C=CCc1ccccc1OCC(O)CNC(C)C (stereo unspecified); 1
CCCCNC(=O)NS(=O)(=O)c1ccc(C)cc1; -1
C[C@]12CCC(=O)C=C1CC[C@@H]1[C@@H]2CC[C@@]2(C)[C@H]1CC[C@]2(O)C(=O)CO; -1

* * *

Molecular target: Single-stranded DNA cytosine deaminase (Homo sapiens)
Experiment: Validation qHTS assay for inhibitors of Activation Induced Cytidine Deaminase (AID): AID signal (AID 1347429)
Conditions: Recombinant AID, FRET ssDNA deamination with UDG, fluorescence; series mostly up to 115 µM
Activity calls are given as the source filed them. Calls come from the whole dose curve; as a rule, active = well fitted inhibition curve with a large enough effect; inconclusive = small, poorly fitted or top-dose-only effect; inactive = no such curve, though single readings can be large or run the other way.
Classes used: active, inactive

CCNC(=O)N1CCN(CCCC(c2ccc(F)cc2)c2ccc(F)cc2)CC1; inactive
CN(C)CCOC(=O)COc1ccc(Cl)cc1; inactive
CN(C)CCCN1c2ccccc2Sc2ccccc21; inactive
CCCOc1ccccc1-c1nc2n[nH]nc2c(=O)[nH]1; inactive
CN1CCN(CC(=O)N2c3ccccc3C(=O)Nc3cccnc32)CC1; inactive
O=C1CC2(CCCC2)CC(=O)N1CCCCN1CCN(c2ncccn2)CC1; inactive
FC(F)(F)c1ccccc1-n1ccnc1; inactive
CCc1cccc(N(C)C(N)=Nc2cccc3ccccc23)c1; inactive
Cc1nc2c([nH]1)c(=O)n(C)c(=O)n2Cc1ccco1; inactive
CC(=O)[C@]1(O)Cc2c(O)c3c(c(O)c2[C@@H](O[C@H]2C[C@H](N)[C@H](O)[C@H](C)O2)C1)C(=O)c1ccccc1C3=O; active
CC(=O)Oc1cc(C(C)C)c(OCCN(C)C)cc1C; inactive
C[N+](C)(C)CCCCCCCCCC[N+](C)(C)C; inactive
Cc1cccc(C)c1NC(=O)C(C)N (configuration not stated); inactive
Cc1ccc(/C(=C\CN2CCCC2)c2ccccn2)cc1; inactive
CN/C(=C\[N+](=O)[O-])NCCSCc1ccc(CN(C)C)o1; inactive
CCOC(=O)c1cnc2c(cnn2CC)c1NN=C(C)C; inactive
COCC(=O)O[C@]1(CCN(C)CCCc2nc3ccccc3[nH]2)CCc2cc(F)ccc2[C@@H]1C(C)C; inactive
O=C(CCNNC(=O)c1ccncc1)NCc1ccccc1; inactive
CN1C(=O)CC[C@H]1c1cccnc1; inactive
COCCCC/C(=N\OCCN)c1ccc(C(F)(F)F)cc1; inactive
C(=C\c1ccccc1)/CN1CCN(C(c2ccccc2)c2ccccc2)CC1; inactive
NC1=NCC2c3ccccc3Cc3ccccc3N12 (configuration not stated); inactive
